- measured.target: human gene recombinant 5-HT7 receptor expressed in CHO cells (Homo sapiens, UniProt P34969)
- Construct: expressed in transfected cells; host or cells: CHO cells (membrane preparation)
- Sequence (P34969 whole entry): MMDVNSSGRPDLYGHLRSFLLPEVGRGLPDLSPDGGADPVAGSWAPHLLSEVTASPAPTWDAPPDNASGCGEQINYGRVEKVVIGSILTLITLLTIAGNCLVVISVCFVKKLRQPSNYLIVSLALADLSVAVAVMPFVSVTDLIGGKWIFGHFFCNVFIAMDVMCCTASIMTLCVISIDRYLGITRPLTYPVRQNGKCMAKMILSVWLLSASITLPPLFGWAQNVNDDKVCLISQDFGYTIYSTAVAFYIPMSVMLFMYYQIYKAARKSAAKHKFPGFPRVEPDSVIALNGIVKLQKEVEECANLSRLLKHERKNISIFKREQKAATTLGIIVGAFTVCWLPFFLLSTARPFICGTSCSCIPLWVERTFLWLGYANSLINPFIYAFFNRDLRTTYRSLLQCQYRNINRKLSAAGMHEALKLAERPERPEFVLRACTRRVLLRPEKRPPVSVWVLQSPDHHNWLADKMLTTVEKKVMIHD
- assay.explanation: Binding affinity for the 5-HT7 serotonin receptor ([3H]LSD radioligand)
pKi: −log10 of the molar value. Counter-ions that a name gives are not always drawn.
We use 6 as the dividing line for pKi: on or above the line is T, below is F.

1) O=C(CCCCCN1CCC(c2ccccc2)CC1)n1c2ccccc2c2ccccc21 [Example 2.9, hydrochloride]	T
2) COc1ccccc1N1CCN(CCCCCn2c3ccccc3c3ccccc32)CC1	T
3) O=C(CCCCN1CCCC1)n1c2ccccc2c2ccccc21 [Example 2.19, hydrochloride]	F
4) c1ccc(CN2CCN(CCCn3c4ccccc4c4ccccc43)CC2)cc1	T
5) COc1ccccc1N1CCN(CCCCCCn2c3ccccc3c3ccccc32)CC1	T
6) CC1CC(C)CN(CCCCCCn2c3ccccc3c3ccccc32)C1 (stereo not drawn)	F
7) Oc1ccccc1N1CCN(CCCCCn2c3ccccc3c3ccccc32)CC1	T
8) CC1CCN(CCCCC(=O)n2c3ccccc3c3ccccc32)CC1 [Example 2.20, hydrochloride]	T
9) c1ccc2c(c1)c1ccccc1n2CCCCCCN1CCCC1	F

---

- measured.target: human gene recombinant 5-HT7 receptor expressed in CHO cells (Homo sapiens, UniProt P34969)
- assay.explanation: Binding affinity for the 5-HT7 serotonin receptor ([3H]LSD radioligand)
Where a name gives a salt, the structure may show the parent alone.
parameter: Ki (nM)

1) COc1ccccc1N1CCN(CCCC(=O)n2c3ccccc3c3ccccc32)CC1	33
2) c1ccc(CN2CCN(CCCCCCn3c4ccccc4c4ccccc43)CC2)cc1	602
3) CC1CC(C)CN(CCCCCC(=O)n2c3ccccc3c3ccccc32)C1 (centres unmarked) [Example 2.6, hydrochloride]	833
4) c1ccc(CN2CCN(CCCCCn3c4ccccc4c4ccccc43)CC2)cc1	233
5) O=C(CCCN1CCN(Cc2ccccc2)CC1)n1c2ccccc2c2ccccc21 [Example 2.32, hydrochloride]	404
6) O=C(CCCCCN1CCN(Cc2ccccc2)CC1)n1c2ccccc2c2ccccc21 [Example 2.13, hydrochloride]	127
7) CN1CCN(CCCCCC(=O)n2c3ccccc3c3ccccc32)CC1 [Example 2.12, hydrochloride]	1910
8) O=C(CCCCCN1CCCC1)n1c2ccccc2c2ccccc21 [Example 2.3, hydrochloride]	1050

---

- measured.target: human gene recombinant 5-HT7 receptor expressed in CHO cells (Homo sapiens, UniProt P34969)
- assay.explanation: Binding affinity for the 5-HT7 serotonin receptor ([3H]LSD radioligand)
pKi: −log10 of the molar value. Structures can show the parent of a compound that is named as a salt.
parameter: pKi

1. O=C(CCCCN1CCC(Cc2ccccc2)CC1)n1c2ccccc2c2ccccc21 [Example 2.26, hydrochloride]	6.51
2. CC(=O)N1CCN(CCCCCC(=O)n2c3ccccc3c3ccccc32)CC1 [Example 2.11, hydrochloride]	5.63
3. CC1CCN(CCCCCCn2c3ccccc3c3ccccc32)CC1	6.22
4. c1ccc(C2CCN(CCCCCCn3c4ccccc4c4ccccc43)CC2)cc1	6.67

---

- measured.target: 5-HT6 (Homo sapiens)
- Sequence (P50406 whole entry, species assumed): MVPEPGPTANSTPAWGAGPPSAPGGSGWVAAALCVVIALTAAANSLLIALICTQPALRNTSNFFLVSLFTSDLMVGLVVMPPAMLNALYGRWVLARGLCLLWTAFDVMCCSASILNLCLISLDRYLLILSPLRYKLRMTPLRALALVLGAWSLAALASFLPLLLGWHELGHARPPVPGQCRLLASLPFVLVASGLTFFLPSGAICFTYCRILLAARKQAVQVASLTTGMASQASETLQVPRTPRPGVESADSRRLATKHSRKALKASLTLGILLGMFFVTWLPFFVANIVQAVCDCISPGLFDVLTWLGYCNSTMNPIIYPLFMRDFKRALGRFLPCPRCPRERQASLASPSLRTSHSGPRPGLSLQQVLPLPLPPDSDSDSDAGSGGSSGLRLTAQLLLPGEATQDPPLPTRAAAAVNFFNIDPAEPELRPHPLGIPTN
- assay.explanation: 5-HT6 receptor inhibition/binding (Tables 2-3)
- particulars: 10 μM
Structures can show the parent of a compound that is named as a salt.
parameter: inhibition at 10 µM (%)

1) CC(=O)N1CCN(CCCCCC(=O)n2c3ccccc3c3ccccc32)CC1 [Example 2.11, hydrochloride]	24.5
2) O=C(CCCCN1CCC(Cc2ccccc2)CC1)n1c2ccccc2c2ccccc21 [Example 2.26, hydrochloride]	93.4
3) COc1ccccc1N1CCN(CCCn2c3ccccc3c3ccccc32)CC1	12.2
4) O=C(CCCCCN1CCC(c2ccccc2)CC1)n1c2ccccc2c2ccccc21 [Example 2.9, hydrochloride]	92.2
5) CN1CCN(CCCCC(=O)n2c3ccccc3c3ccccc32)CC1 [Example 2.28, hydrochloride]	78.4
6) Oc1ccccc1N1CCN(CCCCCn2c3ccccc3c3ccccc32)CC1	95.5
7) CN1CCN(CCCCCCn2c3ccccc3c3ccccc32)CC1	82.2
8) c1ccc(C2CCN(CCCCCCn3c4ccccc4c4ccccc43)CC2)cc1	94.9
9) c1ccc(C2CCN(CCCCCn3c4ccccc4c4ccccc43)CC2)cc1	96.1
10) O=C(CCCCN1CCC(c2ccccc2)CC1)n1c2ccccc2c2ccccc21 [Example 2.25, hydrochloride]	67
11) O=C(CCCCCN1CCN(c2ccccc2O)CC1)n1c2ccccc2c2ccccc21	85.3
12) Oc1ccccc1N1CCN(CCCCn2c3ccccc3c3ccccc32)CC1	77.8
13) O=C(CCCCCN1CCN(Cc2ccccc2)CC1)n1c2ccccc2c2ccccc21 [Example 2.13, hydrochloride]	57.9
14) c1ccc(C2CCN(CCCn3c4ccccc4c4ccccc43)CC2)cc1	32.9
15) c1ccc(CC2CCN(CCCCCCn3c4ccccc4c4ccccc43)CC2)cc1	97.8
16) c1ccc(CN2CCN(CCCCCn3c4ccccc4c4ccccc43)CC2)cc1	65.1
17) c1ccc(CN2CCN(CCCCCCn3c4ccccc4c4ccccc43)CC2)cc1	77.5
18) c1ccc(C2CCN(CCCCn3c4ccccc4c4ccccc43)CC2)cc1	55.5
19) O=C(CCCN1CCN(Cc2ccccc2)CC1)n1c2ccccc2c2ccccc21 [Example 2.32, hydrochloride]	14.7
20) COc1ccccc1N1CCN(CCCCCCn2c3ccccc3c3ccccc32)CC1	85.1
21) CC(=O)N1CCN(CCCCC(=O)n2c3ccccc3c3ccccc32)CC1 [Example 2.27, hydrochloride]	13.8
22) COc1ccccc1N1CCN(CCCC(=O)n2c3ccccc3c3ccccc32)CC1	51.5
23) c1ccc(CN2CCN(CCCn3c4ccccc4c4ccccc43)CC2)cc1	15.1
24) O=C(CCCCN1CCN(c2ccccc2O)CC1)n1c2ccccc2c2ccccc21 [Example 2.30, hydrochloride]	62.6
25) O=C(CCCCN1CCN(Cc2ccccc2)CC1)n1c2ccccc2c2ccccc21 [Example 2.29, hydrochloride]	57.4
26) COc1ccccc1N1CCN(CCCCC(=O)n2c3ccccc3c3ccccc32)CC1 [Example 2.31, hydrochloride]	44.4
27) O=C(CCCCCN1CCC(Cc2ccccc2)CC1)n1c2ccccc2c2ccccc21 [Example 2.10, hydrochloride]	91.9
28) COc1ccccc1N1CCN(CCCCCn2c3ccccc3c3ccccc32)CC1	75.5
29) O=C(CCCN1CCN(c2ccccc2O)CC1)n1c2ccccc2c2ccccc21	16.1
30) Oc1ccccc1N1CCN(CCCCCCn2c3ccccc3c3ccccc32)CC1	96.9
31) COc1ccccc1N1CCN(CCCCCC(=O)n2c3ccccc3c3ccccc32)CC1	30.7
32) CC(=O)N1CCN(CCCCCCn2c3ccccc3c3ccccc32)CC1	35
33) CN1CCN(CCCCCC(=O)n2c3ccccc3c3ccccc32)CC1 [Example 2.12, hydrochloride]	77.6
34) O=C(CCCCCN1CCN(c2noc3ccccc23)CC1)n1c2ccccc2c2ccccc21 [Example 2.14, hydrochloride]	81.3
35) Oc1ccccc1N1CCN(CCCn2c3ccccc3c3ccccc32)CC1	21.7
36) COc1ccccc1N1CCN(CCCCn2c3ccccc3c3ccccc32)CC1	56.3
